# protocol_details: qHTS assay for small molecule activators of the heat shock response signaling pathway - cell viability counter screen (AID 743209); further: nearly all actives have a fitted effect of over 50% in size
# study_conditions: HSE-bla HeLa viability, CellTiter-Glo luminescence, 5 h; series mostly up to 62.6 µM
Inconclusive results are not listed. The source made the active and inactive calls. The call rests on the fitted dose curve; in most records, active means well fitted cell-killing curve with a large enough effect in the repeat runs; inconclusive means weak or mixed curves, or effect the other way; inactive means no such curve, though single readings can be large or run the other way.
Labels: active, inactive

>>> cat("S=C=NCCc1ccccc1")
"active"
>>> cat("CCCCCCC[CH2][Sn]([Cl])([Cl])[CH2]CCCCCCC")
"active"
>>> cat("ClC1(Cl)C2(Cl)C3(Cl)C4(Cl)C(Cl)(Cl)C5(Cl)C3(Cl)C1(Cl)C5(Cl)C24Cl (stereo not given)")
"inactive"
>>> cat("CN1CCc2cc(Cl)c(O)cc2[C@H]2c3ccccc3CC[C@@H]21")
"inactive"
>>> cat("O=C1C[C@@H]2OCC=C3CN4CC[C@]56c7ccccc7N1[C@H]5[C@H]2[C@H]3C[C@H]46")
"inactive"
>>> cat("CCCCCON=O")
"inactive"
>>> cat("O.O.O.O.O.O.O.O=S(=O)([O-])[O-].[Co+2]")
"inactive"
>>> cat("CC(=O)[O][Pb]([c]1ccccc1)([c]1ccccc1)[c]1ccccc1")
"active"
>>> cat("[O-][Cl+3]([O-])([O-])O")
"inactive"
>>> cat("CCCCC(CC)COC(=O)OOC(C)(C)C (stereo not given)")
"active"
>>> cat("O=[N+]([O-])c1cccc2cccc([N+](=O)[O-])c12")
"inactive"
>>> cat("CC[C@H](C)[C@H]1O[C@]2(C=C[C@@H]1C)C[C@@H]1C[C@@H](C/C=C(\\C)[C@@H](O[C@H]3C[C@H](OC)[C@@H](O[C@H]4C[C@H](OC)[C@@H](NC)[C@H](C)O4)[C@H](C)O3)[C@@H](C)/C=C/C=C3\\CO[C@@H]4[C@H](O)C(C)=C[C@@H](C(=O)O1)[C@]34O)O2")
"active"
>>> cat("CC(C)N(C(=O)SC/C(Cl)=C/Cl)C(C)C")
"inactive"
>>> cat("CNC(=O)O/N=C(\\C)C(C)S(C)(=O)=O (stereo not given)")
"inactive"
>>> cat("Cc1c([N+](=O)[O-])c(C)c([N+](=O)[O-])c(C(C)(C)C)c1[N+](=O)[O-]")
"inactive"
>>> cat("CC1(C)C(C=C(Cl)Cl)C1C(=O)OC(C#N)c1ccc(F)c(Oc2ccccc2)c1 (stereo not given)")
"inactive"
>>> cat("O=[N+]([O-])C(Br)Br")
"inactive"
>>> cat("COP(=S)(OC)Oc1ccc([N+](=O)[O-])c(C)c1")
"inactive"
>>> cat("C1=CCC=C1")
"inactive"
>>> cat("O=C(N[C@@H]1N=C(c2ccccc2F)c2cccc3c2N(CC3)C1=O)c1cc2ccccc2[nH]1")
"inactive"
>>> cat("[O]=[Cr][O][Cr]=[O]")
"inactive"
>>> cat("C=Cc1cccc(CCl)c1")
"inactive"
>>> cat("C[C@]12Cc3cn[nH]c3C[C@@H]1CC[C@@H]1[C@@H]2CC[C@@]2(C)[C@H]1CC[C@]2(C)O")
"inactive"
>>> cat("CN1[C@@H]2CC[C@H]1CC(O)C2 (stereo not given in full)")
"inactive"
>>> cat("Nc1ccc(N=Nc2ccccc2)cc1")
"inactive"
>>> cat("O.O.O.O=C([O-])[C@H]([O-])[C@@H]([O-])C(=O)[O-].O=C([O-])[C@H]([O-])[C@@H]([O-])C(=O)[O-].[K+].[K+].[Sb+3].[Sb+3]")
"inactive"
>>> cat("O=C(O)[C@H](O)[C@@H](O)C(=O)O")
"inactive"
>>> cat("COP(=S)(OC)Oc1nc(Cl)c(Cl)cc1Cl")
"inactive"
>>> cat("Clc1ccc(C2(Cn3cncn3)OCCO2)c(Cl)c1")
"inactive"
>>> cat("Oc1ccc(Cl)c(Cl)c1")
"inactive"
>>> cat("Cc1cccc(Cc2cnc[nH]2)c1C")
"inactive"
>>> cat("FC(F)C(F)(F)OCC(Cn1cncn1)c1ccc(Cl)cc1Cl (stereo not given)")
"inactive"
>>> cat("Brc1cccc(-c2ccccc2)c1")
"inactive"
>>> cat("CCOC(=O)CCN(SN(C)C(=O)Oc1cccc2c1OC(C)(C)C2)C(C)C")
"inactive"
>>> cat("C=CC(=C)C")
"inactive"
>>> cat("Cc1ccc(C)c2ccccc12")
"inactive"
>>> cat("CCOP(=S)(NC(C)C)Oc1ccccc1C(=O)OC(C)C (stereo not given)")
"inactive"
>>> cat("O=C(NC(=O)c1ccccc1Cl)Nc1ccc(OC(F)(F)F)cc1")
"inactive"
>>> cat("[Cl][Hg][c]1ccccc1")
"active"
>>> cat("COP(=S)(NC(C)C)Oc1ccc(C)cc1[N+](=O)[O-] (stereo not given)")
"inactive"

---

# protocol_details: qHTS RealTime-Glo MT Cell Viability Assay in HEK293 cells - 24 hour (AID 1224886); further: nearly all actives have a fitted effect of over 50% in size
# study_conditions: RealTime-Glo luminescence; series mostly up to 76.8 µM
Records with an inconclusive call do not appear. The source made the active and inactive calls. Calls follow the shape of the dose curve; as a rule, active = well fitted cell-killing curve with a large enough effect in the repeat runs; inconclusive = weak or mixed curves, or effect the other way; inactive = flat fitted curve, though single readings scatter.
Labels: active, inactive

>>> cat("S=C=Nc1ccccc1")
"inactive"
>>> cat("CCC(C)Nc1c([N+](=O)[O-])cc(C(C)(C)C)cc1[N+](=O)[O-] (stereo unspecified)")
"inactive"
>>> cat("CC1=C2C[C@H]3[C@@H](CC=C4C[C@@H](O)CC[C@@]43C)[C@@H]2CC[C@]12O[C@@H]1C[C@H](C)CN[C@H]1[C@H]2C")
"active"
>>> cat("Clc1ccc(C(Cl)(Cl)Cl)cc1Cl")
"active"
>>> cat("CCC[CH2][Sn]([CH2]CCC)([CH2]CCC)[CH2]CCC")
"active"
>>> cat("CNC(=O)Oc1cc(C)cc(C(C)C)c1")
"inactive"

---

# protocol_details: qHTS assay to identify small molecule antagonists of the retinoid-related orphan receptor gamma (ROR-gamma) signaling pathway - cell viability counter screen (AID 1159520); further: nearly all actives have a fitted effect of over 50% in size; further: potency means the concentration at half of the fitted maximal effect
# study_conditions: Tet-on RORgamma CHO cells viability, ATP luminescence, 16 h; series mostly up to 92.4 µM
Inconclusive results are not listed. Calls of active or inactive are those of the source. Calls follow the shape of the dose curve; as a rule, active = well fitted cell-killing curve with a large enough effect in the repeat runs; inconclusive = weak or mixed curves, or effect the other way; inactive = no such curve, though single readings can be large or run the other way.
measurement_label: Potency

>>> observed_measurement("CN(C)CCc1c[nH]c2ccccc12")
"inactive"
>>> observed_measurement("CC(C)Br")
"inactive"
>>> observed_measurement("CCn1cc[n+](C)c1 (tested in a mixture with another compound)")
"inactive"
>>> observed_measurement("COc1ccc2c(c1OC)C(=O)O[C@@H]2[C@H]1c2cc3c(cc2CCN1C)OCO3")
"inactive"
>>> observed_measurement("N#CCCl")
"inactive"
>>> observed_measurement("Cc1ccc([N+](=O)[O-])[c]2c1[O][Hg]2")
"1.19 µM (active)"
>>> observed_measurement("COP(=S)(NC(C)C)Oc1ccc(C)cc1[N+](=O)[O-] (configuration not stated)")
"inactive"
>>> observed_measurement("Clc1ccc(C(Cl)(Cl)Cl)cc1Cl")
"53.3 µM (active)"
>>> observed_measurement("CC(C)(C)c1ccc(OP(=O)(Oc2ccccc2)Oc2ccccc2)cc1")
"inactive"
>>> observed_measurement("C[C@]12CC[C@H]3[C@@H](CCC4=CC(=O)CC[C@@H]43)[C@@H]1CC[C@@H]2OC(=O)CCc1ccco1")
"inactive"
>>> observed_measurement("CCOP(=S)(OCC)SC(CCl)N1C(=O)c2ccccc2C1=O (configuration not stated)")
"inactive"
>>> observed_measurement("CCNc1nc(NC(C)C(C)C)nc(SC)n1 (configuration not stated)")
"inactive"

---

# protocol_details: Caspase-3/7 induction in CHO-K1 cells by small molecules, qHTS assay (AID 1346980); further: nearly all actives have a fitted effect of over 15% in size
# study_conditions: CHO-K1 caspase-3/7 induction, Caspase-Glo luminescence, 17 h; series mostly up to 92.4 µM
Calls of active or inactive are those of the source. Calls follow the shape of the dose curve; as a rule, active = well fitted activation curve with a large enough effect in the repeat runs; inconclusive = weak or mixed curves; inactive = flat fitted curve, though single readings scatter.
Labels: active, inactive

>>> cat("CC(C)c1c(CN(C)C(C)Cc2ccccc2)n(C)n(-c2ccccc2)c1=O (stereo unspecified)")
"inactive"
>>> cat("Oc1cc(Cl)c(Cl)c(Cl)c1Cl")
"inactive"
>>> cat("C[N+]1(C)[C@@H]2CC[C@H]1CC(OC(=O)C(CO)c1ccccc1)C2 (stereo partly specified)")
"inactive"
>>> cat("CNC(=O)O/N=C(\\C)C(C)S(C)(=O)=O (stereo unspecified)")
"inactive"
>>> cat("Nc1nc(N)c(N)c(N)n1")
"inactive"
>>> cat("CN=C=O")
"inactive"
>>> cat("COC(=O)/C=C(\\C)OP(=O)(OC)OC")
"inactive"
>>> cat("CSSC")
"inactive"
>>> cat("O=NN(CCO)CCO")
"inactive"
>>> cat("O=c1[nH]c2cc(Cl)ccc2n1C1CCNCC1")
"inactive"
>>> cat("O=[N+]([O-])C(Br)Br")
"inactive"
>>> cat("Oc1cc(Cl)cc(Cl)c1")
"inactive"
>>> cat("Brc1cccc(-c2ccccc2)c1")
"inactive"
>>> cat("CN1C2CCC(C)(C)C1CC(OC(=O)C(O)(c1cccs1)c1cccs1)C2 (stereo unspecified)")
"inactive"
>>> cat("O=c1c2ccccc2c(=O)c2c1cc(Cl)c1[nH]c3c([nH]c12)c(Cl)cc1c(=O)c2ccccc2c(=O)c13")
"inactive"
>>> cat("CC(Cl)CCl (stereo unspecified)")
"inactive"
>>> cat("Nc1ccccc1-c1ccccc1")
"inactive"
>>> cat("CC(C)Br")
"inactive"
>>> cat("Oc1ccc2[nH]cc(CCCCN3CC=C(c4ccccc4)CC3)c2c1")
"inactive"
>>> cat("O=[N+]([O-])c1ccc(Cl)c(Cl)c1Cl")
"inactive"
>>> cat("CCOP(=O)(Sc1ccccc1)Sc1ccccc1")
"inactive"
>>> cat("CCC(C)Br (stereo unspecified)")
"inactive"
>>> cat("[Cl][Hg][c]1ccccc1")
"inactive"
>>> cat("N#Cc1ccc(N(CC(N)=O)CC(F)(F)F)cc1C(F)(F)F")
"inactive"
>>> cat("CC(=O)[O][Sn]([c]1ccccc1)([c]1ccccc1)[c]1ccccc1")
"active"
>>> cat("C=CCBr")
"inactive"
>>> cat("CC(Cc1ccc2c(c1)OCO2)NO (stereo unspecified)")
"inactive"
>>> cat("CCCCC(CC)COC(=O)c1ccccc1C(=O)OCC(CC)CCCC (stereo unspecified)")
"inactive"
>>> cat("CN(C)c1ccc(N)cc1")
"inactive"
>>> cat("S=C=NCCc1ccccc1")
"inactive"
>>> cat("CCOP(=O)(OCC)Oc1nc(Cl)c(Cl)cc1Cl")
"inactive"
>>> cat("CCCN")
"inactive"
>>> cat("Cc1cc2c3c(c1)C(c1ccccc1)=N[C@@H](NC(=O)c1ccncc1)C(=O)N3CC2")
"inactive"
>>> cat("CC1CN1 (stereo unspecified)")
"inactive"
>>> cat("CCO/N=C(\\CC)C1=C(O)CC(c2c(C)cc(C)cc2C)CC1=O (stereo unspecified)")
"inactive"
>>> cat("C[C@@H]1CC2=CC(=O)CC[C@@H]2[C@H]2CC[C@@]3(C)[C@@H](CC[C@]3(C)O)[C@@H]21")
"inactive"
>>> cat("Cc1ccc([N+](=O)[O-])[c]2c1[O][Hg]2")
"inactive"
>>> cat("CNC(=O)/C=C(\\C)OP(=O)(OC)OC")
"inactive"
>>> cat("C=CCOC(=O)c1ccccc1N")
"inactive"
>>> cat("O=S1(=O)OCC2C(CO1)C1(Cl)C(Cl)=C(Cl)C2(Cl)C1(Cl)Cl (stereo unspecified)")
"inactive"
>>> cat("CCCCON=O")
"inactive"
>>> cat("CSC1=N[C@@](C)(c2ccccc2)C(=O)N1Nc1ccccc1")
"inactive"
>>> cat("CN(C)C(=S)SSC(=S)N(C)C")
"inactive"
>>> cat("O=[N+]([O-])c1ccccc1-c1ccccc1")
"inactive"
>>> cat("c1ccc(N=NNc2ccccc2)cc1")
"inactive"
>>> cat("S=C=Nc1ccccc1")
"inactive"
>>> cat("NC1CCC(CC2CCC(N)CC2)CC1 (stereo unspecified)")
"inactive"
>>> cat("N#Cc1sc2c(=O)c3ccccc3c(=O)c=2sc1C#N")
"inactive"
>>> cat("C=CC(=C)C")
"inactive"
>>> cat("O.O.O.O=C([O-])[C@H]([O-])[C@@H]([O-])C(=O)[O-].O=C([O-])[C@H]([O-])[C@@H]([O-])C(=O)[O-].[K+].[K+].[Sb+3].[Sb+3]")
"inactive"
>>> cat("O=c1[nH]c(Cl)c(Cl)cc1Cl")
"inactive"
>>> cat("CC1(C)C(C=C(Cl)Cl)C1C(=O)OC(C#N)c1ccc(F)c(Oc2ccccc2)c1 (stereo unspecified)")
"inactive"
>>> cat("N#CCCl")
"inactive"
>>> cat("ClSC(Cl)(Cl)Cl")
"inactive"
>>> cat("ClC1(Cl)C2(Cl)C3(Cl)C4(Cl)C(Cl)(Cl)C5(Cl)C3(Cl)C1(Cl)C5(Cl)C24Cl (stereo unspecified)")
"inactive"
>>> cat("CSC(=O)c1c(C(F)F)nc(C(F)(F)F)c(C(=O)SC)c1CC(C)C")
"inactive"
